# assayProtocol: NCI Yeast Anticancer Drug Screen. Data for the mec2-1 strain (AID 157)
# conditionInfo: S. cerevisiae mec2-1 strain, at 50.0 µM, stronger effect = higher value
The panel holds about 79,000 compounds, 15% with a hit somewhere; the sample as a whole holds those more often.
readoutKind: growth inhibition (%)
// units = %; emit number, no label

Look over these answered cases.
CCOC(=O)C1=C(C)N(Cc2ccccc2)C(C)=C(C(=O)OCC)C1c1ccccc1O
28.2
CC(=O)CC(=O)CCCCCCCCCCCC(=O)CC(C)=O
-15.4
O=C1C(=Cc2ccccc2)C(=O)c2ccccc21
25.6
CCCCCC(Cl)(CC)CCCCC
-0.6
CCC1CCC2c3c([nH]c4ccccc34)C3C(=O)N(c4ccc(OC)cc4)C(=O)C3C2C1 (centres undefined)
-10.6

Q: Which growth inhibition reading was recorded for the molecule COC(=O)C(=O)C(C(=O)C1=NS(=O)(=O)c2cc(S(N)(=O)=O)c(Cl)cc2N1)c1nc2ccc(C(=O)c3ccccc3)cc2[nH]c1=O (centres undefined) ?
A: -18.1

Q: And what about the molecule COc1cc(CCNC2=CC(=O)c3ncccc3C2=O)ccc1O ?
A: 34

Q: And what about the molecule O=C(O)COc1ccc(C(=O)/C(SS/C(C(=O)c2ccc(OCC(=O)O)c(Cl)c2Cl)=C2\C=C(c3ccc(F)cc3)SS2)=C2/C=C(c3ccc(F)cc3)SS2)c(Cl)c1Cl ?
A: -28.4

Q: And what about the molecule COc1cc(C(=O)O[C@H]2CCC3CCC2N3C)cc(OC)c1OC (some centres undefined) ?
A: -31.7

* * *

# assayProtocol: NCI Yeast Anticancer Drug Screen. Data for the bub3 strain (AID 167)
# conditionInfo: S. cerevisiae bub3 mutant strain, at 50.0 µM, stronger effect = higher value
The panel holds about 79,000 compounds, 15% with a hit somewhere; the sample as a whole holds those more often.
readoutKind: growth inhibition (%)
// units = %; emit number, no label

Look over these answered cases.
COC(=O)/C=C1\C(=O)c2ccccc2-c2ccccc21
25.4
OCC(O)C(O)C(O)C(c1ccc(Cl)cc1)c1ccc(Cl)cc1 (stereo not given)
2.25
CC(=N\[O-])/C(C)=N/O.CC(=N\[O-])/C(C)=N/O.CCCc1ccncc1.[Cl-].[Cl-].[Rh+3]
-44.6
O=C(O)CNC(=O)CNC(=O)C(CCC(=O)OCc1ccccc1)NC(=O)OCc1ccccc1 (stereo not given)
6.2

Q: Which growth inhibition reading was recorded for the compound CCSc1[nH]c2nc[nH]c(=O)c2c1C#N ?
A: 0.45

Q: And what about the compound Fc1ccc(CSc2cnnc(SCc3ccc(F)cc3)c2SCc2ccc(F)cc2)cc1 ?
A: -13.9

Q: And what about the compound CCCN(CCCC(NC(C)=O)C(=O)NCc1ccccc1)C(=O)NC (stereo not given) ?
A: -4.65

Q: And what about the compound O=C(N/N=C\c1ccccn1)Nc1ccc(N=Nc2ccccc2)cc1 ?
A: 5.75

Q: And what about the compound N#Cc1c(-c2ccccc2)cc(-c2ccccc2)n(C2OCC(O)C(O)C2O)c1=S (stereo not given) ?
A: 3.15

Q: And what about the compound CCOC(=O)c1sc(Nc2cc(Cl)ccc2Cl)nc1C ?
A: -8.3

* * *

# assayProtocol: NCI Yeast Anticancer Drug Screen. Data for the sgs1 mgt1 strain (AID 161);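 also: 0% = growth of cultures given vehicle only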
# conditionInfo: S. cerevisiae sgs1 mgt1 strain, at 50.0 µM, stronger effect = higher value
About 79,000 compounds went through this panel and 15% of them were active in at least one assay; those are over-represented in the sample as a whole.
readoutKind: growth inhibition (%)
// units = %; emit number, no label

Look over these answered cases.
O=C1Nc2ccccc2N=NN1CCCl
-2.85
O=C(O)CCc1ccc(O)c(O)c1
11.8
CC(CC(C)(C)C)C(=O)NC(N)=O (centres undefined)
-7.95
Cc1cc(C)c(Br)c(C)c1
-2
C=CCNC(=O)C1C2C=CC(C2)C1C(=O)NCC=C (centres undefined)
-21.9

Q: Which growth inhibition reading was recorded for the compound c1ccc(-c2nnc(-c3ccccn3)c3c2C[C@@H]2C[C@@H]4Cc5c(-c6ccccn6)nnc(-c6ccccn6)c5[C@@H]4[C@H]32)nc1 ?
A: -16.4

Q: And what about the compound CCOC(=O)C(Cc1c[nH]c2ccccc12)NC(C)=O (centres undefined) ?
A: 23.6

Q: And what about the compound COc1ccc(CC(N)C(=O)NC2C(CO)OC(n3cnc4c(N)ncnc43)C2O)cc1 (centres undefined) ?
A: -1.6

Q: And what about the compound O=C1NC(=O)C2CCC12 (centres undefined) ?
A: 1.45

Q: And what about the compound CC1(C)CC(=O)C(C(CCC2CCCCC2=O)C2C(=O)CC(C)(C)CC2=O)C(=O)C1 (centres undefined) ?
A: 10

Q: And what about the compound COC(=O)C(=O)C(/C=N/C(=S)NC1CCCCC1)=C(\O)c1ccc(F)cc1 ?
A: -8.5

Q: And what about the compound Clc1ccc(OCCBr)cc1 ?
A: 29.4

Q: And what about the compound CCCCCCCCCCCCCCCCC/C(CC)=N/Nc1ccc([N+](=O)[O-])cc1[N+](=O)[O-] ?
A: -24.6

Q: And what about the compound CC1CCC(OC(=O)CC#N)CC1 (centres undefined) ?
A: -2.3

Q: And what about the compound CCOC(=O)CC(NC(=O)CC(N)C(=O)O)C(=O)OCC (centres undefined) ?
A: -2.7

Q: And what about the compound O=C(O)[C@@H]1OCCOCCO[C@@H](C(=O)O)[C@H](C(=O)O)OCCOCCO[C@H]1C(=O)O ?
A: -8.05

Q: And what about the compound CCOC(=O)C1=C(NC(C)(C)C)OC/C1=N\NC(=O)Cc1ccccc1 ?
A: 21.2

Q: And what about the compound CCCCCCCCCCCCCCCCCCC1=C(O)C(=O)C=C(OC)C1=O ?
A: -3.05

Q: And what about the compound CC(C)N(C(=O)c1ncccc1C(=O)c1ccccn1)C(C)C ?
A: -4.75
